# credit: ChEMBL document CHEMBL4689842

System: U2OS
Assay Procedure: Multiplex assay against U2OS
Format: toxicity, cell-based
Test Parameters: human, 24 h, 1 µM, compound concentration 1 uM, replicate 1
Readout: Population Fragmented Nuclei (%)
Numbers only; they are read as %.

Recorded Population Fragmented Nuclei (%), per entry:
compound=CC[C@@H]1C(=O)N(C)c2cnc(Nc3ccc(C(=O)N[C@H]4CC[C@H](N5CCN(CC6CC6)CC5)CC4)cc3OC)nc2N1C(C)C readout="Population Fragmented Nuclei (%)" unit_tag=% experimental_value=10
compound=C[C@@H](Oc1cc(-n2cnc3ccc(CN4CCN(C)CC4)cc32)sc1C(N)=O)c1ccccc1C(F)(F)F readout="Population Fragmented Nuclei (%)" unit_tag=% experimental_value=16
compound="CC(Cc1ccc(O)c(O)c1)C(C)Cc1ccc(O)c(O)c1 (configuration not stated) [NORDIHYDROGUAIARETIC ACID]" readout="Population Fragmented Nuclei (%)" unit_tag=% experimental_value=12
compound=Cc1ccc(S(=O)(=O)NC2c3ccccc3Oc3ccccc32)cc1 readout="Population Fragmented Nuclei (%)" unit_tag=% experimental_value=57
compound="Cl.Cn1c2c(c3ccc(Cl)c(Cl)c31)C(C#N)C1(CCNCC1)NC2=O (configuration not stated)" readout="Population Fragmented Nuclei (%)" unit_tag=% experimental_value=4

If you can, please state the reported Population Fragmented Nuclei (%) value of CC[C@H](Nc1ncnc2[nH]cnc12)c1nc2cccc(F)c2c(=O)n1-c1ccccc1 .
3

If you can, please state the reported Population Fragmented Nuclei (%) value of CCCCCNC(=N)N/N=C/c1c[nH]c2ccc(OC)cc12.O=C(O)/C=C\C(=O)O [TEGASEROD MALEATE] .
9

If you can, please state the reported Population Fragmented Nuclei (%) value of CN(c1cc(C(F)(F)F)nc(OCCC(=O)O)n1)c1cccc2c1CCC2 .
16

If you can, please state the reported Population Fragmented Nuclei (%) value of Cc1c(Nc2ccc(S(=O)(=O)N3CCN(C)CC3)cc2F)nc2ccc(-c3cnn(C4CC4)c3)cn2c1=O .
1

If you can, please state the reported Population Fragmented Nuclei (%) value of CC(C)[C@H](CO)Nc1nc(Nc2cccc(Cl)c2)c2ncn(C(C)C)c2n1 .
10

If you can, please state the reported Population Fragmented Nuclei (%) value of C=CC(=O)Nc1cc(-n2c(=O)ccc3cnc4ccc(-c5ccc(NS(C)(=O)=O)cc5)cc4c32)ccc1C .
6

If you can, please state the reported Population Fragmented Nuclei (%) value of N#Cc1cccc(C(=O)Nc2cc(-c3ccccc3)nn2-c2ccccc2)c1 .
13

----------
System: U2OS
Assay Procedure: Multiplex assay against U2OS
Format: toxicity, cell-based
Test Parameters: human, 48 h, 10 µM, compound concentration 10 uM, replicate 2
Total Cell Count reference
Please reply with the value in numeric form only.

compound=N#Cc1cccc(C(=O)Nc2cc(-c3ccccc3)nn2-c2ccccc2)c1 experimental_value=78
compound="CC(C)C[C@H](NC(=O)[C@H](Cc1ccccc1)NC(=O)CNC(=O)CNC(=O)[C@@H](N)Cc1ccc(O)cc1)C(=O)O [ENKEPHALIN]" experimental_value=131
compound="CN1C(=O)[C@@H](NC(=O)c2cc3ccccc3[nH]2)N=C(c2ccccc2)c2ccccc21 [DEVAZEPIDE]" experimental_value=66
compound="CCCCCNC(=N)N/N=C/c1c[nH]c2ccc(OC)cc12.O=C(O)/C=C\\C(=O)O [TEGASEROD MALEATE]" experimental_value=103
compound=CCCCN(CC)c1nc(C)nc2c1c(C)cn2-c1c(C)cc(C)cc1C.Cl experimental_value=119

Given the entry CN1CCN(Cc2ccc(-c3cnc4[nH]cc(-c5ccc6[nH]ccc6c5)c4c3)cc2)CC1 , what Total Cell Count was observed with U2OS?
80

Given the entry C=CC(=O)Nc1cc(-n2c(=O)ccc3cnc4ccc(-c5ccc(NS(C)(=O)=O)cc5)cc4c32)ccc1C , what Total Cell Count was observed with U2OS?
54

----------
System: Fibroblast
Assay Procedure: Multiplex assay against human fibroblast
Type: toxicity, cell-based
Test Parameters: 48 h, 10 µM, compound concentration 10 uM, replicate 1
Total Cell Count reference
Please reply with the value in numeric form only.

Recorded Total Cell Count, per entry:
substance_smiles=CC(C)C[C@H](NC(=O)[C@H](Cc1ccccc1)NC(=O)CNC(=O)CNC(=O)[C@@H](N)Cc1ccc(O)cc1)C(=O)O experimental_value=130
substance_smiles=CN(c1cc(C(F)(F)F)nc(OCCC(=O)O)n1)c1cccc2c1CCC2 experimental_value=175
substance_smiles=c1ccc(-c2oc3ncnc(NC[C@@H]4CCCO4)c3c2-c2ccccc2)cc1 experimental_value=98
substance_smiles=Oc1cccc(-c2nc(N3CCOCC3)c3oc4ncccc4c3n2)c1 experimental_value=110
substance_smiles=CC(C)c1cc(Nc2nc(N3CCC[C@H](N)C3)ncc2C(N)=O)cc(C(C)C)n1 experimental_value=92

Here's the next entry for you.
Given the entry CCCc1cc(C)[nH]c(=O)c1CNC(=O)c1cc(-c2ccc(N3CCN(C(C)C)CC3)nc2)cc2c1cnn2C(C)C , what Total Cell Count was observed with Fibroblast?
124

----------
Test system: Fibroblast
Assay Procedure: Multiplex assay against human fibroblast
Type: toxicity, cell-based
Test Parameters: 12 h, 1 µM, compound concentration 1 uM, replicate 1
Population Hoechst High Intensity Objects (%) reference
Numbers only; they are read as %.

Recorded Population Hoechst High Intensity Objects (%), per entry:
substance_smiles=Cc1ccc(S(=O)(=O)NC2c3ccccc3Oc3ccccc32)cc1 tgt=Fibroblast experimental_value=11
substance_smiles=CC(/C=C1\SC(=S)N(CCCC(=O)Nc2ccc(C(=O)O)c(O)c2)C1=O)=C\c1ccccc1 tgt=Fibroblast experimental_value=11

Given the entry CN(c1cc(C(F)(F)F)nc(OCCC(=O)O)n1)c1cccc2c1CCC2 , what Population Hoechst High Intensity Objects (%) was observed with Fibroblast?
11

Given the entry C=CC(=O)Nc1cc(-n2c(=O)ccc3cnc4ccc(-c5ccc(NS(C)(=O)=O)cc5)cc4c32)ccc1C , what Population Hoechst High Intensity Objects (%) was observed with Fibroblast?
7

----------
Population Apoptotic (%) reference
Tested on: U2OS
Assay Procedure: Multiplex assay against U2OS
Assay type: toxicity, cell-based
Test Parameters: human, 12 h, 10 µM, compound concentration 10 uM, replicate 2
Numbers only; they are read as %.

Recorded Population Apoptotic (%), per entry:
compound=CC(/C=C1\SC(=S)N(CCCC(=O)Nc2ccc(C(=O)O)c(O)c2)C1=O)=C\c1ccccc1 readout="Population Apoptotic (%)" experimental_value=44
compound=N#CCNC(=O)c1ccc(-c2ccnc(Nc3ccc(N4CCOCC4)cc3)n2)cc1 readout="Population Apoptotic (%)" experimental_value=13
compound=CCOC(=O)CCNc1cc(N2CCc3ccccc3CC2)nc(-c2ccccn2)n1 readout="Population Apoptotic (%)" experimental_value=40
compound="COc1cc(C)c(Sc2cnc(NC(=O)c3ccc(CNC(C)C(C)(C)C)cc3)s2)cc1C(=O)N1CCN(C(C)=O)CC1 (configuration not stated)" readout="Population Apoptotic (%)" experimental_value=0
compound="CC(Cc1ccc(O)c(O)c1)C(C)Cc1ccc(O)c(O)c1 (configuration not stated) [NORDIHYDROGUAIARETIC ACID]" readout="Population Apoptotic (%)" experimental_value=0
compound=CCOc1ccn(-c2ccc(F)cc2)c(=O)c1C(=O)Nc1ccc(Oc2ccnc(N)c2Cl)c(F)c1 readout="Population Apoptotic (%)" experimental_value=0

If you can, please state the reported Population Apoptotic (%) value of C=CC(=O)Nc1cc(-n2c(=O)ccc3cnc4ccc(-c5ccc(NS(C)(=O)=O)cc5)cc4c32)ccc1C .
76

If you can, please state the reported Population Apoptotic (%) value of C[C@@H](Oc1cc(-n2cnc3ccc(CN4CCN(C)CC4)cc32)sc1C(N)=O)c1ccccc1C(F)(F)F .
40

If you can, please state the reported Population Apoptotic (%) value of Cl.NC[C@@H]1O[C@H](C23CC4CC(CC(C4)C2)C3)Cc2c1ccc(O)c2O .
52

If you can, please state the reported Population Apoptotic (%) value of Cc1c(Nc2ccc(S(=O)(=O)N3CCN(C)CC3)cc2F)nc2ccc(Nc3cnn(C4CC4)c3)cn2c1=O .
37

If you can, please state the reported Population Apoptotic (%) value of Cc1ccc(S(=O)(=O)NC2c3ccccc3Oc3ccccc32)cc1 .
95

If you can, please state the reported Population Apoptotic (%) value of CCCc1cc(C)[nH]c(=O)c1CNC(=O)c1cc(-c2ccc(N3CCN(C(C)C)CC3)nc2)cc2c1cnn2C(C)C .
85

If you can, please state the reported Population Apoptotic (%) value of CCCCCNC(=N)N/N=C/c1c[nH]c2ccc(OC)cc12.O=C(O)/C=C\C(=O)O [TEGASEROD MALEATE] .
100

If you can, please state the reported Population Apoptotic (%) value of CC[C@@H]1C(=O)N(C)c2cnc(Nc3ccc(C(=O)NC4CCN(C)CC4)cc3OC)nc2N1C1CCCC1 .
81

If you can, please state the reported Population Apoptotic (%) value of N#Cc1cccc(C(=O)Nc2cc(-c3ccccc3)nn2-c2ccccc2)c1 .
45

If you can, please state the reported Population Apoptotic (%) value of NC(=O)c1ccc2nc(-c3ccc(C4(N)CCC4)cc3)c(-c3ccccc3)n2n1 .
20

If you can, please state the reported Population Apoptotic (%) value of Cl.Cn1c2c(c3ccc(Cl)c(Cl)c31)C(C#N)C1(CCNCC1)NC2=O (configuration not stated) .
61

If you can, please state the reported Population Apoptotic (%) value of CC(C)c1cc(Nc2nc(N3CCC[C@H](N)C3)ncc2C(N)=O)cc(C(C)C)n1 .
65
